Assignment: determine reported MIC for the given compounds.
Tested on: M. tuberculosis H37Rv
Assay summary: Mycobacterium tuberculosis H37Rv Inhibition Assay (Whole Cell Assay), MIC
Type: cell-based
Test parameters: 144 h, M. tuberculosis H37Rv, Middlebrook 7H9 + ADC, 37° C. six days, resazurin readout, read-out: MIC_H37Rv

Field: example entries. Status: answers known.
INPUT: Field request: MIC | item: COc1cc(-c2nnn(CC3CCC(F)(F)CC3)n2)ccc1S(=O)(=O)NCC(N)=O
OUTPUT: 1 to 5 µM

INPUT: Field request: MIC | item: NC(=O)CNS(=O)(=O)c1ccc(-c2cn(CC3CCC(F)(F)CC3)nn2)cc1
OUTPUT: 1 to 5 µM

INPUT: Field request: MIC | item: C[C@@H](O)CNS(=O)(=O)c1ccc(-c2cn(Cc3ccc(F)cc3)nn2)cc1
OUTPUT: < 0.1 µM

Field: MIC. Fill in for each record below.
1. Cc1cc(Cn2nnc(-c3ccc(S(=O)(=O)NCC(N)=O)cc3)n2)ccn1
2. O=S(=O)(NCCO)c1ccc(-c2nnn(CC3CCOCC3)n2)cc1
3. C[C@@H](O)CNS(=O)(=O)c1ccc(-c2nnn(Cc3ccc(F)cn3)n2)cc1
4. COC(=O)CNS(=O)(=O)c1ccc(-c2nnn(Cc3ccc(F)cc3)n2)cc1
5. NC(=O)CNS(=O)(=O)c1ccc(-c2nnn(Cc3ccncc3)n2)cc1
6. COC(=O)CNS(=O)(=O)c1ccc(-c2nnn(Cc3ccncc3)n2)cc1

OUTPUT:
1: < 0.1 µM; 2: 1 to 5 µM; 3: < 0.1 µM; 4: 1 to 5 µM; 5: < 0.1 µM; 6: 5 to 10 µM

Field: MIC. Fill in for each record below.
1. O=S(=O)(NCCO)c1ccc(-c2nnn(CC3CCCOC3)n2)cc1 (centres unmarked)
2. Cc1cccc(Cn2nnc(-c3ccc(S(=O)(=O)NCCO)cc3)n2)n1

OUTPUT:
["5 to 10 µM", "10 to 25 µM"]

Field: MIC. Fill in for each record below.
1. O=S(=O)(NCCO)c1ccc(-c2nnn(Cc3ccncc3)n2)cc1
2. Cc1ccc(Cn2cc(-c3ccc(S(=O)(=O)NCCO)cc3)nn2)nc1
3. N#Cc1ccc(Cn2nnc(-c3ccc(S(=O)(=O)NCCO)cc3)n2)nc1
4. COc1cc(-c2nnn(Cc3ccc(F)cc3)n2)ccc1S(=O)(=O)NCCO
5. O=S(=O)(NCCO)c1ccc(-c2nnn(Cc3ccc(F)cn3)n2)cc1
6. COc1ccc(Cn2nnc(-c3ccc(S(=O)(=O)NCCO)c(OC)c3)n2)nc1
7. N#CCNS(=O)(=O)c1ccc(-c2cn(Cc3ccc(F)cn3)nn2)cc1
8. COc1ccc(Cn2nnc(-c3ccc(S(=O)(=O)NCC#N)cc3)n2)cn1

OUTPUT:
["< 0.1 µM", "10 to 25 µM", "< 0.1 µM", "< 0.1 µM", "< 0.1 µM", "1 to 5 µM", "< 0.1 µM", "< 0.1 µM"]

Field: MIC. Fill in for each record below.
1. COc1ccc(Cn2nnc(-c3ccc(S(=O)(=O)NCCO)cc3)n2)nc1
2. O=S(=O)(NCC(O)CO)c1ccc(-c2nnn(Cc3ccc(F)cc3)n2)cc1 (centres unmarked)
3. COc1ccc(Cn2nnc(-c3ccc(S(=O)(=O)NC[C@@H](C)O)cc3)n2)cc1
4. Cc1ccc(Cn2nnc(-c3ccc(S(=O)(=O)NCCO)cc3)n2)cn1
5. COc1ccc(Cn2nnc(-c3ccc(S(=O)(=O)NC[C@@H](C)O)cc3)n2)nc1
6. COc1cnc(Cn2nnc(-c3ccc(S(=O)(=O)NCC#N)cc3)n2)cn1
7. O=S(=O)(NCCO)c1ccc(-c2nnn(CC3CCC(F)(F)CC3)n2)cc1

OUTPUT:
1. 1 to 5 µM
2. 5 to 10 µM
3. 1 to 5 µM
4. < 0.1 µM
5. 10 to 25 µM
6. 1 to 5 µM
7. < 0.1 µM

Field: MIC. Fill in for each record below.
1. Cc1ccc(Cn2nnc(-c3ccc(S(=O)(=O)NCC(N)=O)cc3)n2)nc1
2. O=S(=O)(NCCO)c1ccc(-c2nnn(Cc3ccnnc3)n2)cc1
3. NC(=O)CNS(=O)(=O)c1ccc(-c2nnn(CC3CCCCO3)n2)cc1 (centres unmarked)

OUTPUT:
["< 0.1 µM", "< 0.1 µM", "< 0.1 µM"]

Field: MIC. Fill in for each record below.
1. O=S(=O)(NCCO)c1ccc(-c2cn(Cc3ccc(F)cn3)nn2)cc1
2. COc1cc(-c2nnn(Cc3ccc(C#N)cc3)n2)ccc1S(=O)(=O)NCCO
3. C[C@@H](O)CNS(=O)(=O)c1ccc(-c2nnn(CC3CCC(F)(F)CC3)n2)cc1
4. O=S(=O)(NCCO)c1ccc(-c2nnn(Cc3ccc(F)cn3)n2)c(Cl)c1
5. C[C@H](O)CNS(=O)(=O)c1ccc(-c2nnn(Cc3ccc(F)cc3)n2)cc1

OUTPUT:
1. 1 to 5 µM
2. < 0.1 µM
3. 10 to 25 µM
4. < 0.1 µM
5. 1 to 5 µM

INPUT: Field request: MIC | item: CNS(=O)(=O)c1ccc(-c2nnn(Cc3ccncc3)n2)cc1
OUTPUT: 1 to 5 µM

---

Test system: M. tuberculosis H37Rv
Assay summary: Mycobacterium tuberculosis H37Rv Inhibition Assay (Whole Cell Assay), MIC
Type: cell-based
Test parameters: 144 h, M. tuberculosis H37Rv, Middlebrook 7H9 + ADC, 37° C. six days, resazurin readout, read-out: MIC_H37Rv
Recorded endpoint: MIC

Field: example entries. Status: answers known.
INPUT: Quick check: MIC on M. tuberculosis H37Rv, item Cc1cc(S(=O)(=O)NCCO)ccc1-c1nnn(Cc2ccc(F)cn2)n1 [Example 73] ?
OUTPUT: < 0.1 µM

INPUT: Quick check: MIC on M. tuberculosis H37Rv, item COc1cc(-c2nnn(Cc3ccncc3)n2)ccc1S(=O)(=O)NCC(N)=O [Example 55] ?
OUTPUT: < 0.1 µM

Field: MIC. Fill in for each record below.
1. COc1cc(-c2nnn(Cc3ccc(F)cn3)n2)ccc1S(=O)(=O)NCCO [Example 50]
2. N#CCNS(=O)(=O)c1ccc(-c2nnn(Cc3ccncn3)n2)cc1 [Example 58]
3. COc1ccc(Cn2nnc(-c3ccc(S(=O)(=O)NCCO)cc3)n2)cc1 [Example 6]
4. Cc1nccc(Cn2nnc(-c3ccc(S(=O)(=O)NCCO)cc3)n2)n1 [Example 23]

OUTPUT:
1 to 5 µM
< 0.1 µM
< 0.1 µM
5 to 10 µM

---

Tested on: M. tuberculosis H37Rv
Assay summary: Mycobacterium tuberculosis H37Rv Inhibition Assay (Whole Cell Assay), MIC
Type: cell-based
Test parameters: 144 h, M. tuberculosis H37Rv, Middlebrook 7H9 + ADC, 37° C. six days, resazurin readout, read-out: MIC_H37Rv
Recorded endpoint: MIC

INPUT: Field request: MIC | item: Cc1ccc(Cn2nnc(-c3ccc(S(=O)(=O)NCCO)cc3)n2)nc1
OUTPUT: 1 to 5 µM

Field: MIC. Fill in for each record below.
1. O=S(=O)(NCCO)c1ccc(-c2nnn(CC3CCCCO3)n2)cc1 (racemic)
2. COc1ccc(Cn2nnc(-c3ccc(S(=O)(=O)NCCO)cc3)n2)cc1F
3. O=S(=O)(NCCO)c1ccc(-c2nnn(Cc3ccc(OC(F)(F)F)cc3)n2)cc1
4. NC(=O)CNS(=O)(=O)c1ccc(-c2nnn(Cc3ccc(F)cn3)n2)cc1
5. O=S(=O)(NCCO)c1ccc(-c2nnn(Cc3ccncn3)n2)cc1
6. CCNS(=O)(=O)c1ccc(-c2nnn(Cc3ccncc3)n2)cc1
7. O=S(=O)(NC(CO)CO)c1ccc(-c2nnn(Cc3ccc(F)cc3)n2)cc1

OUTPUT:
1: < 0.1 µM; 2: < 0.1 µM; 3: 1 to 5 µM; 4: < 0.1 µM; 5: 1 to 5 µM; 6: 10 to 25 µM; 7: 5 to 10 µM

---

Tested on: M. tuberculosis H37Rv
Assay summary: Mycobacterium tuberculosis H37Rv Inhibition Assay (Whole Cell Assay), MIC
Type: cell-based
Test parameters: 144 h, M. tuberculosis H37Rv, Middlebrook 7H9 + ADC, 37° C. six days, resazurin readout, read-out: MIC_H37Rv
Recorded endpoint: MIC

Field: example entries. Status: answers known.
INPUT: Field request: MIC | item: CNS(=O)(=O)c1ccc(-c2nnn(Cc3ccc(C#N)cc3)n2)cc1
OUTPUT: 1 to 5 µM

INPUT: Field request: MIC | item: N#CCNS(=O)(=O)c1ccc(-c2nnn(CC3CCOCC3)n2)cc1
OUTPUT: < 0.1 µM

INPUT: Field request: MIC | item: Cc1cc(S(=O)(=O)NCCO)c(F)cc1-c1nnn(Cc2ccc(F)cn2)n1
OUTPUT: < 0.1 µM

INPUT: Field request: MIC | item: O=S(=O)(NC(CO)CO)c1ccc(-c2nnn(Cc3ccncc3)n2)cc1
OUTPUT: 5 to 10 µM

INPUT: Field request: MIC | item: Cc1cc(S(=O)(=O)NCCO)ccc1-c1nnn(CC2CCCCO2)n1 (single isomer, unassigned) [Example 74 Isomer 1]
OUTPUT: 5 to 10 µM

INPUT: Field request: MIC | item: CCOc1ccc(Cn2nnc(-c3ccc(S(=O)(=O)NCCO)cc3)n2)cc1
OUTPUT: < 0.1 µM

INPUT: Field request: MIC | item: N#Cc1ccc(Cn2cc(-c3ccc(S(=O)(=O)NCCO)cc3)nn2)cc1
OUTPUT: < 0.1 µM

INPUT: Field request: MIC | item: CNS(=O)(=O)c1ccc(-c2nnn(Cc3ccc(F)cc3)n2)cc1
OUTPUT: 1 to 5 µM

INPUT: Field request: MIC | item: O=S(=O)(NCCO)c1ccc(-c2nnn(Cc3ccc(C(F)(F)F)cc3)n2)cc1
OUTPUT: 5 to 10 µM

INPUT: Field request: MIC | item: O=S(=O)(NCCO)c1ccc(-c2nnn(Cc3ccc(C(F)F)cc3)n2)cc1
OUTPUT: < 0.1 µM

Field: MIC. Fill in for each record below.
1. CCc1ccc(Cn2nnc(-c3ccc(S(=O)(=O)NCCO)cc3)n2)cc1
2. O=S(=O)(NCCO)c1ccc(-c2nnn(CC3CCCCC3)n2)cc1

OUTPUT:
["1 to 5 µM", "< 0.1 µM"]

Field: MIC. Fill in for each record below.
1. N#CCNS(=O)(=O)c1ccc(-c2cn(Cc3ccncc3)nn2)cc1
2. C[C@@H](c1ccc(F)cn1)n1nnc(-c2ccc(S(=O)(=O)NCCO)cc2)n1
3. CNS(=O)(=O)c1ccc(-c2nnn(Cc3ccncc3)n2)cc1OC
4. COc1cc(-c2nnn(Cc3ccncc3)n2)ccc1S(=O)(=O)NCCO
5. COc1ccc(Cn2cc(-c3ccc(S(=O)(=O)NCCO)cc3)nn2)cc1
6. Cc1cnc(Cn2nnc(-c3ccc(S(=O)(=O)NCC#N)cc3)n2)cn1

OUTPUT:
< 0.1 µM
1 to 5 µM
1 to 5 µM
1 to 5 µM
< 0.1 µM
< 0.1 µM

Field: MIC. Fill in for each record below.
1. Cc1cc(Cn2nnc(-c3ccc(S(=O)(=O)NCCO)cc3)n2)ccn1
2. NC(=O)CNS(=O)(=O)c1ccc(-c2nnn(CC3CCC(F)(F)CC3)n2)cc1

OUTPUT:
1. 1 to 5 µM
2. < 0.1 µM

Field: MIC. Fill in for each record below.
1. O=S(=O)(NCCO)c1ccc(-c2nnn(Cc3ncc(F)cc3F)n2)cc1
2. Cc1ccc(Cn2nnc(-c3ccc(S(=O)(=O)NC[C@@H](C)O)cc3)n2)nc1

OUTPUT:
1 to 5 µM
10 to 25 µM
